assay: Pharmacokinetic evaluation in humans; type: in vivo; details: human, plasma, 150 mg, compartmental, read-out: t1/2, Minimum, maximum

# COMPOUND, half-life
records = [
    ("C[C@H](NC(=O)[C@H](CCC(=O)O)NC(=O)CCCC[C@@H]1CCSS1)C(=O)O [RLip-EA-OH, N-(R)-lipoyl-L-glutamyl-L- alanine]", "1.1 to 3.3 h"),
]

###

test: Pharmacokinetic evaluation in humans; type: in vivo; settings: human, plasma, 60 mg, noncompartmental, read-out: CL, Minimum, maximum
PROPERTY_MEASURED: clearance

# MOLECULE, MEASURED_VALUE
rows = [
    ("C[C@H](NC(=O)[C@H](CCC(=O)O)NC(=O)CCCC[C@@H]1CCSS1)C(=O)O [RLip-EA-OH, N-(R)-lipoyl-L-glutamyl-L- alanine]", "322 to 582 mL/min"),
]

###

experiment: Pharmacokinetic evaluation in humans; format: in vivo; conditions: human, plasma, 20 mg, noncompartmental, read-out: Vss, Median

# COMPOUND, Vd
measured = [
    ("C[C@H](NC(=O)[C@H](CCC(=O)O)NC(=O)CCCC[C@@H]1CCSS1)C(=O)O [RLip-EA-OH, N-(R)-lipoyl-L-glutamyl-L- alanine]", "18.7 L"),
]

###

test: Pharmacokinetic evaluation in humans; type: in vivo; conditions: human, plasma, 60 mg, noncompartmental, read-out: Vss, Mean (SD)

# COMPOUND, QUANTITY_UNIT, Vd
records = [
    ("C[C@H](NC(=O)[C@H](CCC(=O)O)NC(=O)CCCC[C@@H]1CCSS1)C(=O)O [RLip-EA-OH, N-(R)-lipoyl-L-glutamyl-L- alanine]", "L", 14.9),
]

###

test: Pharmacokinetic evaluation in humans; format: in vivo; settings: human, plasma, 20 mg, compartmental, read-out: Estimated Cmax, Minimum, maximum

# COMPOUND, Cmax
measured = [
    ("C[C@H](NC(=O)[C@H](CCC(=O)O)NC(=O)CCCC[C@@H]1CCSS1)C(=O)O [RLip-EA-OH, N-(R)-lipoyl-L-glutamyl-L- alanine]", "1.36 to 3.34 µg/mL"),
]

###

test: Pharmacokinetic evaluation in rats; type: in vivo; details: both sexes, plasma; rat; 30 mg/kg IV infusion

# COMPOUND, clearance / mL/min/kg
data = [
    ("C[C@H](NC(=O)[C@H](CCC(=O)O)NC(=O)CCCC[C@@H]1CCSS1)C(=O)O [RLip-EA-OH, N-(R)-lipoyl-L-glutamyl-L- alanine]", 75),
]

###

assay: Pharmacokinetic evaluation in humans; type: in vivo; conditions: human, plasma, 20 mg, noncompartmental, read-out: AUC0-t, Minimum, maximum
PROPERTY_MEASURED: AUC(0-t)

# MOLECULE, PROPERTY_MEASURED, MEASURED_VALUE
measured = [
    ("C[C@H](NC(=O)[C@H](CCC(=O)O)NC(=O)CCCC[C@@H]1CCSS1)C(=O)O [RLip-EA-OH, N-(R)-lipoyl-L-glutamyl-L- alanine]", "AUC(0-t)", "466 to 717 ng·h/mL"),
]

###

assay: Pharmacokinetic evaluation in humans; type: in vivo; conditions: human, plasma, 20 mg, noncompartmental, read-out: AUC0-t, Mean (SD)

# MOLECULE, AUC(0-t)
rows = [
    ("C[C@H](NC(=O)[C@H](CCC(=O)O)NC(=O)CCCC[C@@H]1CCSS1)C(=O)O [RLip-EA-OH, N-(R)-lipoyl-L-glutamyl-L- alanine]", "581 ng·h/mL"),
]

###

assay: Pharmacokinetic evaluation in humans; assay type: in vivo; settings: human, plasma, 20 mg, compartmental, read-out: AUCinf, Median

# COMPOUND, AUC(0-inf) [ng·h/mL]
records = [
    ("C[C@H](NC(=O)[C@H](CCC(=O)O)NC(=O)CCCC[C@@H]1CCSS1)C(=O)O [RLip-EA-OH, N-(R)-lipoyl-L-glutamyl-L- alanine]", 614),
]

###

assay: Pharmacokinetic evaluation in humans; type: in vivo; settings: human, plasma, 60 mg, compartmental, read-out: t1/2, Median (converted)
PROPERTY_MEASURED: half-life (h)

# COMPOUND, MEASURED_VALUE
records = [
    ("C[C@H](NC(=O)[C@H](CCC(=O)O)NC(=O)CCCC[C@@H]1CCSS1)C(=O)O [RLip-EA-OH, N-(R)-lipoyl-L-glutamyl-L- alanine]", 1.4),
]

###

experiment: Pharmacokinetic evaluation in humans; format: in vivo; conditions: human, plasma, 60 mg, compartmental, read-out: Vss, Median
PROPERTY_MEASURED: Vd (L)

# COMPOUND, MEASURED_VALUE
rows = [
    ("C[C@H](NC(=O)[C@H](CCC(=O)O)NC(=O)CCCC[C@@H]1CCSS1)C(=O)O [RLip-EA-OH, N-(R)-lipoyl-L-glutamyl-L- alanine]", 15),
]

###

Experiment: Pharmacokinetic evaluation in humans
Assay type: in vivo
Conditions: human, plasma and urine, 300 mg, noncompartmental, read-out: Renal clearance, Mean (SD) (converted)
Description: Plasma and urine RLip-EA-OH concentrations were measured at BASi, Inc. (West Lafayette, Ind.) using a LC/MS/MS method with positive turbo ion spray, in the multiple reaction-monitoring mode. The quantifiable range for human plasma was 1.00 to 500 ng/mL and QC samples were included at 3.00, 75.0 and 375 ng/mL. The PK population included subjects who received RLip-EA-OH and had ≧1 post-dose PK measurement. […]

# COMPOUND, CL renal [mL/min]
measured = [
    ("C[C@H](NC(=O)[C@H](CCC(=O)O)NC(=O)CCCC[C@@H]1CCSS1)C(=O)O [RLip-EA-OH, N-(R)-lipoyl-L-glutamyl-L- alanine]", 141),
]

###

experiment: Pharmacokinetic evaluation in humans; type: in vivo; details: human, plasma, 300 mg, compartmental, read-out: t1/2, Median (converted)

# COMPOUND, half-life [min]
rows = [
    ("C[C@H](NC(=O)[C@H](CCC(=O)O)NC(=O)CCCC[C@@H]1CCSS1)C(=O)O [RLip-EA-OH, N-(R)-lipoyl-L-glutamyl-L- alanine]", 72),
]

###

experiment: Pharmacokinetic evaluation in humans; assay type: in vivo; conditions: human, plasma, 300 mg, read-out: CL (converted)

# COMPOUND, clearance (mL/min)
rows = [
    ("C[C@H](NC(=O)[C@H](CCC(=O)O)NC(=O)CCCC[C@@H]1CCSS1)C(=O)O [RLip-EA-OH, N-(R)-lipoyl-L-glutamyl-L- alanine]", 322),
]

###

assay: Pharmacokinetic evaluation in humans; format: in vivo; conditions: human, plasma, 300 mg, compartmental, read-out: Estimated Cmax, Minimum, maximum
PROPERTY_MEASURED: Cmax

# COMPOUND, PROPERTY_MEASURED, MEASURED_VALUE
data = [
    ("C[C@H](NC(=O)[C@H](CCC(=O)O)NC(=O)CCCC[C@@H]1CCSS1)C(=O)O [RLip-EA-OH, N-(R)-lipoyl-L-glutamyl-L- alanine]", "Cmax", "31 to 70.1 µg/mL"),
]

###

experiment: Pharmacokinetic evaluation in humans; format: in vivo; details: human, plasma, 150 mg, noncompartmental, read-out: Vss, Minimum, maximum

# COMPOUND, Vd
data = [
    ("C[C@H](NC(=O)[C@H](CCC(=O)O)NC(=O)CCCC[C@@H]1CCSS1)C(=O)O [RLip-EA-OH, N-(R)-lipoyl-L-glutamyl-L- alanine]", "9.9 to 16.6 L"),
]

###

assay: Pharmacokinetic evaluation in humans; format: in vivo; conditions: human, plasma, 20 mg, noncompartmental, read-out: t1/2, Minimum, maximum
PROPERTY_MEASURED: half-life

# COMPOUND, PROPERTY_MEASURED, MEASURED_VALUE
records = [
    ("C[C@H](NC(=O)[C@H](CCC(=O)O)NC(=O)CCCC[C@@H]1CCSS1)C(=O)O [RLip-EA-OH, N-(R)-lipoyl-L-glutamyl-L- alanine]", "half-life", "0.61 to 1.41 h"),
]

###

test: Pharmacokinetic evaluation in humans; format: in vivo; conditions: human, plasma, at the mg dose, read-out: mean terminal-phase t1/2 (converted)

# COMPOUND, half-life [min]
data = [
    ("C[C@H](NC(=O)[C@H](CCC(=O)O)NC(=O)CCCC[C@@H]1CCSS1)C(=O)O [RLip-EA-OH, N-(R)-lipoyl-L-glutamyl-L- alanine]", 51.6),
]

###

assay: Pharmacokinetic evaluation in humans; type: in vivo; conditions: human, plasma, 150 mg, compartmental, read-out: Estimated Cmax, Median

# COMPOUND, Cmax
data = [
    ("C[C@H](NC(=O)[C@H](CCC(=O)O)NC(=O)CCCC[C@@H]1CCSS1)C(=O)O [RLip-EA-OH, N-(R)-lipoyl-L-glutamyl-L- alanine]", "18400 ng/mL"),
]
